assay: in vitro
runConditions: human, hela cells, % viability
Decide using viability at 28.5 h, 10 µM alone. Strictly below 90%: True. Equal to or above 90%: False.

>  <compound>
CCn1c(CN2CCOCC2)nnc1SCC(=O)Nc1cc(C)cc(C)c1 [CBK270258]

>  <label>
False

$$$$
>  <compound>
Cc1cc(C)c(S(=O)(=O)Nc2ccc(S(=O)(=O)Nc3ccc(Cl)cc3Cl)cc2)c(C)c1 [CBK266022]

>  <label>
False

$$$$
>  <compound>
CC(=O)c1ccc(-n2ncc(-c3ccc(F)cc3)n2)cc1 [CBK112889]

>  <label>
False

$$$$
>  <compound>
O=S(=O)(Nc1nccnc1Cl)c1ccccc1Cl [CBK149698]

>  <label>
True

$$$$
>  <compound>
Cc1[nH]c2ccc(F)cc2c1CC(=O)N(C)CCN1CCCCC1 [CBK282748]

>  <label>
True

$$$$
>  <compound>
O=[N+]([O-])c1cnc(NS(=O)(=O)c2ccc(-c3cc(C(F)(F)F)on3)s2)s1 [CBK067545]

>  <label>
False

$$$$
>  <compound>
Cc1nc(C2CCCN(C(=O)c3cnn(C)c3)C2)c2sccn12 (stereo not drawn) [CBK285236]

>  <label>
True

$$$$

Hello, the source for this data is paper PMC12040169, in case you need it.
